Data credit: patent US9359311B2

target: biotinylated Aβ1-42 (Homo sapiens, UniProt P05067); construct: To assure monomerisation of biotinylated Aβ1-42 (Anaspec #23523-0.5) the peptide was thoroughly monomerised; experiment: Inhibition of Abeta oligomerisation (biotinylated Aβ1-42, neutravidin plate, streptavidin-HRP); conditions: inhibition of Aβ1-42 aggregation, approximately 12 nM Aβ1-42, PBS pH 7.4, 2% DMSO, 30 min RT
Sequence (P05067 672-713 limits assumed): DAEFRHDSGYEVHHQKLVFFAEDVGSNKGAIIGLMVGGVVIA
METRIC NAME: IC50
Please provide the amount together with its unit, number first.

# get_value(readout= IC50, system= biotinylated Aβ1-42 (Homo sapiens, UniProt P05067)) for `O=C(O)Cc1cc(-c2ccc(-c3cc(CC(=O)O)c(-c4ccc(-c5ccc(C(=O)O)cc5)s4)s3)s2)sc1-c1ccc(-c2ccc(C(=O)O)cc2)s1`
1260 nM

Notebook: pull reported IC50 for biotinylated Aβ1-42 (Homo sapiens, UniProt P05067), entry Nc1c(/N=N/c2ccc(-c3ccc(/N=N/c4cc(S(=O)(=O)O)c5ccccc5c4N)cc3)cc2)cc(S(=O)(=O)O)c2ccccc12 [Congo Red, reference compound]
1580 nM

Provide value of IC50 for this record tested with biotinylated Aβ1-42 (Homo sapiens, UniProt P05067): `O=C(O)Cc1cc(-c2cccs2)sc1-c1ccc(-c2sc(-c3ccc(C(=O)O)s3)cc2CC(=O)O)s1`
1580 nM
